Each entry below carries its reported pIC50.
biological target: T1, human PD-1 expressed on cells (CHO human PD-1 cells) (human, UniProt Q15116 21-288); test: FMAT epitope competition on CHO human PD-1 cells; competitor 2 nM 1.1-Strep tagged protein
T1 construct: CHO cells in the FMAT assays; Jurkat reporter cells in the reporter assay; primary CD4+ T cells in the mixed lymphocyte reaction; also called CHO TREX human PD1 cell line; CHO PD-1
T1 sequence (Q15116 21-288): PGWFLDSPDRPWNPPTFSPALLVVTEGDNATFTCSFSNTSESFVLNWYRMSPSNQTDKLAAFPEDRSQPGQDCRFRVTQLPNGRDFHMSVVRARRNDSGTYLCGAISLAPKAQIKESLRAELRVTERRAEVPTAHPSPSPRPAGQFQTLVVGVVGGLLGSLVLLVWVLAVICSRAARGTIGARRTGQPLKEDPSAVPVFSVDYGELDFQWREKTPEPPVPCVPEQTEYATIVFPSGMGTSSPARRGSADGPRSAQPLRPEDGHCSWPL
Convention used: pIC50 is expressed as -log10 of the molar concentration.

Binder	Metric	Experimental result
Humabody VH 1.33 (VHH, human VH single domain antibody) VHH: EVQLVESGGGLVQPGRSLRLSCAASGFTFDDYAMHWVRQAPGKDLEWVSGISWNGGSYGYADSVKGRFTISRDNAKNSLYLQMNSLRAEDTALYYCVREKGPGLTGSTADYYGLDAWGQGTMVTVSS	pIC50	8.60
Humabody VH 2.27 (VHH, human VH single domain antibody) VHH: EVQLVESGGGVVRPGGSLRLSCAASGFTFDDYAMSWVRQAPGKGLEWVSGITWNAGSTGYADSVKDRFTISRDNAKNSLYLQMNSLRAEDTALYYCVRDKYSYAWSYDDFDIWGQGTMVTVSS	pIC50	8.05
Humabody VH 2.52 (VHH, human VH single domain antibody) VHH: EVQLVESGGGVVRPGGSLRLSCAASGFTFDDYAMSWVRQAPGKGLEWVSGITWNGGSTGYADSVKDRFTISRDNAKNSLYLQMNSLRAEDTALYYCVRDKYSYAWSYDVFDIWGQGTMVTVSS	pIC50	8.19
Humabody VH 1.37 (VHH, human VH single domain antibody) VHH: EVQLVESGGGLVQPGRSLRLSCAASGFTFDDYAFHWVRQAPGKDLEWVSGISWNGGSMGYADSVKGRFTISRDNAKNSLYLQMNSLRAEDTALYYCVREKGPGLTGSTADYYGLDAWGQGTMVTVSS	pIC50	8.12
Humabody VH 1.34 (VHH, human VH single domain antibody) VHH: EVQLVESGGGLVQPGRSLRLSCAASGFTFDDYAMHWVRQAPGKDLEWVSGISWNGGSQGYADSVKGRFTISRDNAKNSLYLQMNSLRAEDTALYYCVREKGPGLTGSTADYYGLDAWGQGTMVTVSS	pIC50	8.19
Humabody VH 1.26 (VHH, human VH single domain antibody) VHH: EVQLVESGGGLVQPGRSLRLSCAASGFTFDDYAMHWVRQAPGKDLEWVSGISWNGGSMGYADSVKGRFTISRDNAKNSLYLQMNSLRAEDTALYYCVREKGPGLTGSTADYYGLDAWGQGTMVTVSS	pIC50	8.10

INPUT: Fill blank: measured pIC50 of the binder Humabody VH 2.53 (VHH, human VH single domain antibody) VHH: EVQLVESGGGVVRPGGSLRLSCAASGFTFDDYAMSWVRQAPGKGLEWVSGITWNGGSTGYADSVKDRFTISRDNAKNSLYLQMNSLRAEDTALYYCVRDKYSYAWSYDDFDIWGQGTMVTVSS is ____.
OUTPUT: 8.15

INPUT: Suppose we examine the binder VH single domain antibody 1.1 (VHH, human VH single domain antibody (Humabody), purified through its C-terminal His tag; also called Humabody 1.1; clone 1.1) VHH: EVQLLESGGGSVQPGRSLRLSCAASGFTFDDHAMHWVRQAPGKGLEWVSGISWNSGSMGYADSVKDRFTISRDNAKSSLYLQMNSLRAEDTALYYCVREKGPGLTGSTADYYGLDVWGQGTMVTVSS ; what pIC50 value has been reported?
OUTPUT: 8.46

INPUT: Dear colleague, I am looking for the recorded pIC50 of the following binder: Humabody VH 1.39 (VHH, human VH single domain antibody) VHH: EVQLVESGGGLVQPGRSLRLSCAASGFTFDDYALHWVRQAPGKDLEWVSGISWNGGSYGYADSVKGRFTISRDNAKNSLYLQMNSLRAEDTALYYCVREKGPGLTGSTADYYGLDAWGQGTMVTVSS
OUTPUT: 8.05

INPUT: Need pIC50, item VH single domain antibody 2.1 (VHH, human VH single domain antibody; also called Humabody VH 2.1; clone 2.1) VHH: EVQLVESGGGVVRPGGSLRLSCAASGFTFDDYAMSWVRQAPGKGLEWVSGITWNGGSTGYADSVKDRFTISRDNAKNSLYLQMNSLRAEDTALYYCVRDKYSYAWSYDGFDIWGQGTMVTVSS
OUTPUT: 8.04
